Some compounds, each annotated with its measured growth.
Tested on: EKVX NSCLC
ASSAY_NAME: NCI-60 one-dose screen, 48 h (100 = growth as untreated, 0 = no growth, -100 = all killed)
EXPERIMENTAL_SETUP: 10 µM unless noted
The panel holds about 83,000 compounds, 20% with a hit somewhere; the sample as a whole holds those more often. Active and inactive are the calls of the source. The calls were made as follows: active = growth percent below 10; inactive = the rest.

A selection of reference data follows.
| COMPOUND | RECORDED_MEASUREMENT |
| --- | --- |
| Clc1ccc(-c2cn3cc(Cc4ccc(Cl)c(Cl)c4)sc3n2)cc1 | 69.8% (inactive) |
| COc1ccc(C(=O)c2cc(C(=O)/C=C/c3c(Cl)cccc3Cl)c3cc(C)ccn23)cc1 | 92.1% (inactive) |

// moving on: another record for growth
Find the recorded growth belonging to Nc1nc(N)c2c(n1)NC(c1ccc(F)cc1)CC(c1ccc(Nc3nc(NCCO)nc(Nc4ccc(Cl)cc4)n3)cc1)=N2 (stereo not drawn) and report it.
42.5% (inactive)

* * *

Tested on: MOLT-4 leukemia
ASSAY_NAME: NCI-60 one-dose screen, 48 h (100 = growth as untreated, 0 = no growth, -100 = all killed)
EXPERIMENTAL_SETUP: 10 µM unless noted
This is part of a sample that, as a whole, favours compounds with a hit. Of some 83,000 tested, about 20% had one in any assay.
ENDPOINT: growth (%)
Give the quantity in %, number only.

| COMPOUND | growth (%) |
| --- | --- |
| COc1cc(/C=C/C(=O)c2ccc(Cl)cc2)ccc1Oc1nc(NCCO)nc(N2CCOCC2)n1 | 78.6 |
| COc1cc(-c2ccc3ncnc(NC(C)c4ccccc4)c3c2)cnc1OC (stereo not given) | 45.1 |
| O=C1Nc2cc(Cl)ccc2/C1=C\c1ccc(OCc2ccc([N+](=O)[O-])cc2)cc1 | 97.4 |

Recall the recorded growth for `COc1cc(-c2nc3ccc(-c4nnc(SCC(=O)Nc5ccc(C(=O)/C=C/c6ccc(Cl)cc6)cc5)o4)cc3[nH]2)cc(OC)c1OC` with MOLT-4 leukemia and state it.
79.5

Recall the recorded growth for `COc1cc(-c2nc3ccc(-c4nnc(SCC(=O)Nc5ccc(C(C)=O)cc5)o4)cc3[nH]2)cc(OC)c1OC` with MOLT-4 leukemia and state it.
110

Recall the recorded growth for COc1cc2nc(-c3ccc(C)cc3)cc(OCCCNCC3CCCO3)c2cc1OC (stereo not given) with MOLT-4 leukemia and state it.
71.9

Recall the recorded growth for `NS(=O)(=O)c1cccc(Nc2nc(SCC(=O)c3ccc(Cl)cc3)nc3ccccc23)c1` with MOLT-4 leukemia and state it.
82.8

Recall the recorded growth for `Cc1cccc(/C=C/c2nn3c(-c4ccco4)nnc3s2)c1` with MOLT-4 leukemia and state it.
104

Recall the recorded growth for `CCOC(=O)c1c(Nc2ccccc2)nn2c(N)c(C#N)c(-c3ccc(OC)cc3)nc12` with MOLT-4 leukemia and state it.
94.7

Recall the recorded growth for `COc1ccc(-c2cc(C(=O)N=Nc3c(O)[nH]c4ccccc34)c3ccccc3n2)cc1OC` with MOLT-4 leukemia and state it.
102

* * *

System: OVCAR-3 ovarian
ASSAY_NAME: NCI-60 one-dose screen, 48 h (100 = growth as untreated, 0 = no growth, -100 = all killed)
EXPERIMENTAL_SETUP: 10 µM unless noted
About 83,000 compounds went through this panel and 20% of them were active in at least one assay; those are over-represented in the sample as a whole.
ENDPOINT: growth (%)
Give the quantity in %, number only.

A selection of reference data follows.
| MOLECULE | READOUT_UNIT | growth |
| --- | --- | --- |
| CCOC(=O)c1c(NC(=O)c2cccc(C(F)(F)F)c2)sc2cc(O)ccc12 | % | 98.6 |
| O=C(CCN1C(=O)/C(=C/c2ccccc2F)SC1=S)N1CCOCC1 | % | 99.8 |
| Fc1ccc(-c2cc3nc(C(Cl)Cl)nc(-c4ccc(Cl)cc4)n3n2)cc1 | % | -31.9 |
| COc1ccc(/C=C/C(=O)c2ccc(NC(=O)CSc3nnc(-c4ccc5nc(-c6ccc(Cl)cc6)[nH]c5c4)o3)cc2)cc1 | % | 111 |
| COc1cc2nc(-c3ccc(Cl)cc3)cc(OCCCNCC3CCCO3)c2cc1OC (stereo unspecified) | % | 87.7 |

// moving on: another record for growth
Find the recorded growth belonging to `COc1ccc(-n2c(SCC(=O)Nc3ccc(-c4nc5ccccc5[nH]4)cc3)nc3ccccc3c2=O)cc1` and report it.
-34.8
